Target: Human recombinant serotonin 5-HT1A receptors expressed in CHO cells (Homo sapiens, UniProt P08908)
Construct: expressed in transfected cells; host or cells: CHO cells
Sequence (P08908 whole entry): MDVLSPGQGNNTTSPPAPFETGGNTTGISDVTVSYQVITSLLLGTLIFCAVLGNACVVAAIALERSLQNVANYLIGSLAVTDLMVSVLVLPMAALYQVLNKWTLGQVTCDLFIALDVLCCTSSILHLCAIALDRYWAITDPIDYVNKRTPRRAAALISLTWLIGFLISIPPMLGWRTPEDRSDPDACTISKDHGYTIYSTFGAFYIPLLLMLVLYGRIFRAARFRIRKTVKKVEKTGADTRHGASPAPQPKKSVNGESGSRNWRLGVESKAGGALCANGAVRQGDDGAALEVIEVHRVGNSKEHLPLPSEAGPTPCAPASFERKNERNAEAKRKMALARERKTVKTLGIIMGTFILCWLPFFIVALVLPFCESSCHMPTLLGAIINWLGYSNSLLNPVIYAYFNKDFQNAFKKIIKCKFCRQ
Assay: [35S]GTPγS 5-HT1A activity assay
Assay type: biochemical
Conditions: 10 μM compound; [35S]GTPγS binding increase relative to serotonin
readout: % activation of 5HT1A at 10 μM

Examples from the recorded data:
(Q) What does the record list as % activation of 5HT1A at 10 μM for "Oc1cccc(N2CCN(Cc3cc4c(cn3)[nH]c3ccccc34)CC2)c1" ?
(A) active

(Q) What does the record list as % activation of 5HT1A at 10 μM for "CCOc1ccccc1N1CCN(Cc2nc3sc4c(c3c(=O)[nH]2)CCCC4)CC1" ?
(A) 50%

(Q) What does the record list as % activation of 5HT1A at 10 μM for "CCOc1ccccc1N1CCN(Cc2cc3c(cn2)[nH]c2ccccc23)CC1" ?
(A) 48%

(Q) What does the record list as % activation of 5HT1A at 10 μM for "O=c1[nH]c(CN2CCC(c3ccccc3)CC2)nc2sc3c(c12)CCCC3" ?
(A) active

(Q) What does the record list as % activation of 5HT1A at 10 μM for "COc1ccccc1N1CCN(Cc2cc3c(cn2)[nH]c2ccccc23)CC1" ?
(A) active

Let's switch to this molecule now.
(Q) What does the record list as % activation of 5HT1A at 10 μM for "O=c1[nH]c(CN2CCN(c3cccc(O)c3)CC2)nc2sc3c(c12)CCCC3" ?
(A) active

Provenance of the data: patent US8168639B2
